protocol.description: compounds altering RPL19A-GFP fluorescence, TOR branch – cell-based, S. cerevisiae, multiplex flow cytometry, MLPCN, primary screen (AID 2025);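 note: median channel GFP fluorescence of the barcoded RPL19A-GFP strain; lower means less RPL19A-GFP as with rapamycin TOR inhibition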
protocol.conditions: S. cerevisiae RPL19A-GFP strain, 3 h, at 10 µM
Hit rate of the full screen: of about 330,000 compounds, about 980 (0.3%) were called active.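 Rule for the calls: active = percent response vs DMSO below 50%; inconclusive = fewer than 70 events counted for the yeast strain; inactive = the rest.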 The entries come from a sample that favours actives as a whole.
Outcome codes: Yes = active, No = inactive

> print(dat)
                                    compound  cat
 1  C=CCOC(=O)C1=C(C)OC(N)=C(C#N)C1c1ccc(F)cc1 (centres undefined)   No
 2  COc1ccc(C(=O)NC2CC2)cc1OC1CCN(Cc2ccc(SC)cc2)CC1   No
 3  COc1ccc(C(=O)Nc2ncc3c(n2)-c2ccccc2CC3)cc1   No
 4  CCOC(=O)N1CCC(N(CCOC)C(=O)Nc2ccc(C)c(C)c2)CC1   No
 5  O=C(CCc1ccc(S(=O)(=O)N2CCOCC2)cc1)NN=C1CCCCCCC1   No
 6  COc1ccc(CN2CCCC(C(=O)c3ccc(Cl)cc3)C2)cc1Cn1cncn1 (centres undefined)   No
 7   O=C(Nc1cc2c3c(c1)CC(=O)N3CCC2)c1ccccc1F  Yes
 8  CC1(C)CC2CC(C)(CN2c2ncnc3ccc(Br)cc23)C1 (centres undefined)   No
 9  C=CC[C@H](CC(=O)N(CCO)Cc1ccccc1)C(=O)N[C@@H](COC(=O)[C@@H](CC=C)Cc1ccc(F)cc1)Cc1ccccc1   No
10  COC(=O)C1=C(N)Oc2c(oc(CO)cc2=O)C1c1c(F)cccc1Cl (centres undefined)   No
11  CC(=O)C12CC(C)=C(C)CC1CC1C3CCC4=CC(=O)CCC4(C)C3CCC12C (centres undefined)   No
12  O=C(C[C@H]1C/C=C\C[C@@H](NC(=O)OCC2c3ccccc3-c3ccccc32)C(=O)O[C@@H](c2ccccc2)CNC1=O)N[C@H](CO)Cc1ccccc1   No
13  CC(CN1CCOCC1)OC(=O)c1ccc(C(C)(C)C)cc1 (centres undefined)   No
14        CCOC(=O)CNC(=O)/C=C/c1c(Cl)cccc1Cl   No
15  COc1cccc(NC(=O)CSc2nnc(Cc3ccc(OC)c(OC)c3)o2)c1   No
16  COc1cc(C2C3=C(CCCC3=O)OC3=C2C(=O)CCC3)ccc1OCC(=O)Nc1ccccc1   No
17  Cc1ccc(CNC(=O)CCS(=O)(=O)c2ccc3c(c2)CC(C)N3C(=O)C2CC2)o1 (centres undefined)  Yes
18  COC(=O)c1cc(C(=O)OCC(=O)Nc2cc(C)on2)cc([N+](=O)[O-])c1  Yes
19       COc1ccc(-c2nc3ccccc3n2CCC(C)C)cc1OC   No
20  Cc1ccc(NC(=S)N(CCCN2CCCC2)Cc2cccn2Cc2ccc(Cl)cc2)cc1   No
21  COc1ccc(-n2nnnc2SCc2nc(N)nc(N3CCOCC3)n2)cc1  Yes
22  CC(C)=CCCC1(C)C=Cc2c(ccc3c2[nH]c2cc(O)c(C)cc23)O1 (centres undefined)   No
23      CCCOc1ccc(/C=N/NC(=O)C2CC2)c(OCCC)c1   No
24  COc1ccc(-c2nnn(Cc3nc(N)nc(N4CCCCC4)n3)n2)cc1   No
25  O=C(c1cc2ccccc2o1)N1CCN(c2cccc(C(F)(F)F)c2)CC1   No
26  COc1cc(C(=O)NCCOC(=O)c2cccc(N(C)C)c2)cc(OC)c1OC   No
27  COc1cccc(CN2CCNC(=O)C2CC(=O)N(C)CCc2ccccn2)c1 (centres undefined)   No
28  COc1ccc(C2=Nn3c(nnc3-c3ccccc3OC)SC2)cc1OC1CCCC1   No
29  O=C1N(c2ccc(Cl)cc2)C(c2ccc(Cl)cc2)N2CCCN12 (centres undefined)   No
